- METHOD_DESCRIPTION: osmotic lysis modulators in infected erythrocytes, primary screen, PSAC antagonist project, cell-based, P. falciparum Indochina, OD700, 3 h (AID 1156)
- CONDITION: higher = more signal, called active from +8 up or from −8 down
Field: z-score. Provide a value for each of the compounds that follow.
Give bare numbers.

Please supply z-score for each of the following items, keeping them in order.
1. O=C1C[C@@](C(=O)NCC(F)(F)F)(c2ccc([N+](=O)[O-])cc2)[C@@H](c2ccc(CO)cc2I)N1CC12CC3CC(CC(C3)C1)C2
2. O=C1NC(=O)C2C1C=CC(C(O)C(c1ccccc1)c1ccccc1)N2Nc1ccccn1 (stereo not given)
3. O=C1O[C@@H](c2ccccc2)[C@@H](c2ccccc2)N2[C@@H](c3ccc(OCCO)cc3)[C@]3(C(=O)Nc4ccc(C#CC5=CCCCC5)cc43)[C@@H](C(=O)Nc3nc4ccccc4s3)[C@H]12
4. C=CCC(OC(C)=O)[C@@H]1[C@@H](N(Cc2ccc(-c3ccccc3)cc2)C(=O)Cc2ccc(OC)cc2)c2cc(OCCCO)ccc2N1C(=O)c1ccc2ccccc2c1 (stereo not given in full)
5. CN1C(=O)C2C(C1=O)C1C=C(CCCO)C2C(C2CC2)N1C (stereo not given)

Outgoing:
[-0.0836, 0.156, 1.92, -0.247, 0.139]

Lab note: each compound below needs its z-score filled in.
1. CC[C@@H](O[Si](C#C[Si](C(C)C)(C(C)C)C(C)C)(C(C)C)C(C)C)c1cn([C@H](C)c2ccccc2)nn1
2. Cc1cccc([C@H]2C[C@H]3C(Br)=C[C@@]2(CO)C(=O)[C@]32CO2)c1

Outgoing:
1: -0.969; 2: -0.759

Answer for every listed entry: what is its z-score? The entries follow.
1. O=C(NCCN1CCOCC1)[C@@H]1c2ccccc2C(=O)N(CC23CC4CC(CC(C4)C2)C3)[C@H]1c1ccc(CO)cc1
2. C=CCNC(=O)[C@H]1[C@@H]2C(=O)O[C@@H](c3ccccc3)[C@@H](c3ccccc3)N2[C@@H](c2ccc(OCCO)cc2)[C@]12C(=O)N(C(=O)OCCOC)c1ccc(C#CCC(C(=O)OC)C(=O)OC)cc12
3. CCCCC(=C=CC[C@@H](O)c1ccc(OCCO)cc1)CCO
4. CCN1C(=O)C2CC(=O)C3C(CN(S(=O)(=O)c4ccc(C)cc4)C3c3ccc(C)cc3)C2C1=O (stereo not given)
5. C=C(/C=C\CNS(=O)(=O)c1ccc(C)cc1)[C@H](O)[C@H]1CCCN1S(=O)(=O)c1ccccc1[N+](=O)[O-]
6. COCCOC(=O)N1C(=O)[C@@]2(c3cc(C#CC4=CCCCC4)ccc31)[C@H](C(=O)N1CCCCCCC1)[C@H]1C(=O)O[C@H](c3ccccc3)[C@H](c3ccccc3)N1[C@@H]2c1ccccc1OCCO

Outgoing:
1: 1.29; 2: 0.743; 3: 0.249; 4: 0.135; 5: 1.03; 6: -0.249

Working through the 2 compounds below one at a time, give z-score for each.
1. C=C(COC)C(=O)CC[C@@H](OC(=O)c1ccccc1-c1ccccc1C(=O)O)c1ccccc1OCCO
2. CCCCC=C[C@@H](NC(=O)C(C)(C)C)c1ccccc1

Outgoing:
1.03
-1.46

Origin of the recorded values: PubChem BioAssay
